Target: CYP2C19 (Homo sapiens, UniProt P33261)
Sequence (P33261 whole entry): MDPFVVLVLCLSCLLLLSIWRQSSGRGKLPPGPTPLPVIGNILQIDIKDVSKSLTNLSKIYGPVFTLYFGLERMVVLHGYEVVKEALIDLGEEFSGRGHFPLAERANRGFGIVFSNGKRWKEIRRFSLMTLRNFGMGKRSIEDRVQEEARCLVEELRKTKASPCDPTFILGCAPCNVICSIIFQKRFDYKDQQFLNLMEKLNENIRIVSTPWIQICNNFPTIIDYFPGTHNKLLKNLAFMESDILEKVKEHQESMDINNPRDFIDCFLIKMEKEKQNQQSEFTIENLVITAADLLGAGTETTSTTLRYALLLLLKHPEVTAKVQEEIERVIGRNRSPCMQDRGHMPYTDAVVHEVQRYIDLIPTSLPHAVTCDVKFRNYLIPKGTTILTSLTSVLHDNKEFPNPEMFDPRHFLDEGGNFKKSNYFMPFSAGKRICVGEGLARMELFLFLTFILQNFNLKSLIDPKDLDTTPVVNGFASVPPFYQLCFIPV
Assay: Inhibition of CYP2C19 in human liver microsomes assessed as S-mephenytoin conversion to 4'-hydroxy mephenytoin at 2.5 uM preincubated for 10 mins followed by NADPH addition measured after 15 mins by LC-MS/MS analysis relative to control
Type: ADME
Conditions: probe S-mephenytoin
experimental-endpoint: inhibition at 0.25 h, 2.5 µM (%)

- entry-smiles: "Fc1ccc2c(c1)c1c(n2CCCOc2ccc(Cl)cc2)CCNC1"
  experimental-endpoint: "inhibition at 0.25 h, 2.5 µM"
  recorded-number: 5

----------
Molecular target: CYP3A4 (Homo sapiens, UniProt P08684)
Sequence (P08684 whole entry): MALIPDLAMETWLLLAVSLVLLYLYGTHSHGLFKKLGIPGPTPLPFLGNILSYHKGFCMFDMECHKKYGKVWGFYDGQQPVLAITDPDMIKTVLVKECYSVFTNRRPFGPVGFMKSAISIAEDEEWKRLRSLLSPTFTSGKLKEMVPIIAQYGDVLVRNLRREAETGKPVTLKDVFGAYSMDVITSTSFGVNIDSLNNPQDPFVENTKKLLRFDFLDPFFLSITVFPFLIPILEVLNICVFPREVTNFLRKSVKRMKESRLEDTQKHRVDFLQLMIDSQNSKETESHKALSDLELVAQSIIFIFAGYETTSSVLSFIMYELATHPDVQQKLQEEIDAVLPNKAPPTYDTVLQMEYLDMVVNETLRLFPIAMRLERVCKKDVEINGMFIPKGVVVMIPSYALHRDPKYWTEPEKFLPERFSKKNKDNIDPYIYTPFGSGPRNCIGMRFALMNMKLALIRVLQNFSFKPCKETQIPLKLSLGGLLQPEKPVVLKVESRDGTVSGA
Assay: Inhibition of CYP3A4 in human liver microsomes assessed as testosterone conversion to 6-hydroxy testosterone at 2.5 uM preincubated for 10 mins followed by NADPH addition measured after 15 mins by LC-MS/MS analysis relative to control
Type: ADME
Details: probe testosterone
experimental-endpoint: inhibition at 0.25 h, 2.5 µM

- entry-smiles: "Fc1ccc2c(c1)c1c(n2CCCOc2ccc(Cl)cc2)CCNC1"
  experimental-endpoint: "inhibition at 0.25 h, 2.5 µM"
  result: "-10%"

----------
Target: Cytochrome P450 2C9 (Homo sapiens, UniProt P11712)
Sequence (P11712 whole entry): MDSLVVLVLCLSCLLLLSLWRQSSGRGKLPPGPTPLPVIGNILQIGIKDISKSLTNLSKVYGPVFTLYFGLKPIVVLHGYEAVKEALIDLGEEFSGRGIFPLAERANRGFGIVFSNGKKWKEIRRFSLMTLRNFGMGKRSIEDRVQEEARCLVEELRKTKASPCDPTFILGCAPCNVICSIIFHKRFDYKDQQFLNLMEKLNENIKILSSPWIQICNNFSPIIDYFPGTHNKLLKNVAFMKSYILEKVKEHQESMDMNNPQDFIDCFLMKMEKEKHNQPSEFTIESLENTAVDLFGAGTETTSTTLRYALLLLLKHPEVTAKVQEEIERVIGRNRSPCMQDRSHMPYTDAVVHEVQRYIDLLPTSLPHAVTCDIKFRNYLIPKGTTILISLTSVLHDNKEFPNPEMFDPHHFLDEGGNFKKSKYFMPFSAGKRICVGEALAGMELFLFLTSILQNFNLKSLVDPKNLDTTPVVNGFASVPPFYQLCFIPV
pIC50: −log10 of the molar value.

- entry-smiles: "Fc1ccc2c(c1)c1c(n2CCCOc2ccc(Cl)cc2)CCNC1"
  pIC50: "< 4.60"

----------
Target: UniProt:P08684
Experiment: Inhibition of CYP3A4 in human liver microsomes assessed as testosterone conversion to 6-hydroxy testosterone at 25 uM preincubated for 10 mins followed by NADPH addition measured after 15 mins by LC-MS/MS analysis relative to control
Format: ADME
Settings: probe testosterone

- entry-smiles: "Fc1ccc2c(c1)c1c(n2CCCOc2ccc(Cl)cc2)CCNC1"
  assayed-system: "UniProt:P08684"
  units-of-measure: "%"
  inhibition at 0.25 h, 25 µM: -35

----------
Biological target: CYP2C19 (Homo sapiens, UniProt P33261)
Experiment: Inhibition of CYP2C19 in human liver microsomes assessed as S-mephenytoin conversion to 4'-hydroxy mephenytoin at 0.25 uM preincubated for 10 mins followed by NADPH addition measured after 15 mins by LC-MS/MS analysis relative to control
Type: ADME
Settings: probe S-mephenytoin
experimental-endpoint: inhibition at 0.25 h, 0.25 µM (%)

- entry-smiles: "Fc1ccc2c(c1)c1c(n2CCCOc2ccc(Cl)cc2)CCNC1"
  assayed-system: "CYP2C19 (Homo sapiens, UniProt P33261)"
  experimental-endpoint: "inhibition at 0.25 h, 0.25 µM"
  recorded-number: 4

----------
Target: Cytochrome P450 2C19 (Homo sapiens, UniProt P33261)
Sequence (P33261 whole entry): as the sequence (P33261 whole entry) above

- entry-smiles: "Fc1ccc2c(c1)c1c(n2CCCOc2ccc(Cl)cc2)CCNC1"
  assayed-system: "Cytochrome P450 2C19 (Homo sapiens, UniProt P33261)"
  IC50: "> 25 µM"

----------
Tested on: Nakaseomyces glabratus
Assay: Antifungal activity against Candida glabrata 537 after 24 hrs by serial dilution method
Assay type: functional
Conditions: Nakaseomyces glabratus, 537, 24 h
Entries and their MIC80
experimental-endpoint: MIC80 (µg/mL)

- entry-smiles: "CN1CCc2c(c3cc(Cl)ccc3n2CC#N)C1"
  experimental-endpoint: "MIC80"
  value-operator: ">"
  recorded-number: 64
- entry-smiles: "Cc1ccc2c(c1)[C@@H]1CN(C)CC[C@@H]1N2C(=O)c1ccc2ccccc2c1"
  experimental-endpoint: "MIC80"
  value-operator: ">"
  recorded-number: 64
- entry-smiles: "CCN1CCc2c(c3cc(Cl)ccc3n2CCCOc2ccc(Cl)cc2)C1"
  experimental-endpoint: "MIC80"
  value-operator: "="
  recorded-number: 32
- entry-smiles: "CN1CCc2c(c3cc(C(F)(F)F)ccc3n2CCCOc2ccc(Cl)cc2)C1"
  experimental-endpoint: "MIC80"
  value-operator: "="
  recorded-number: 64
- entry-smiles: "CN1CCc2c(c3cc(Cl)ccc3n2C(=O)Cc2ccccc2)C1"
  experimental-endpoint: "MIC80"
  value-operator: ">"
  recorded-number: 64
- entry-smiles: "CN1CCc2c(c3cc(Cl)ccc3n2Cc2cccc(Cl)c2)C1"
  experimental-endpoint: "MIC80"
  value-operator: "="
  recorded-number: 16
- entry-smiles: "CCCN1CCc2c(c3cc(Cl)ccc3n2CCCOc2ccc(Cl)cc2)C1"
  experimental-endpoint: "MIC80"
  value-operator: "="
  recorded-number: 16
- entry-smiles: "C#CCn1c2c(c3cc(Cl)ccc31)CN(C)CC2"
  experimental-endpoint: "MIC80"
  value-operator: "="
  recorded-number: 64
- entry-smiles: "CN1CCc2c(c3cc(Cl)cc(Cl)c3n2CCCOc2ccc(Cl)cc2)C1"
  experimental-endpoint: "MIC80"
  value-operator: ">"
  recorded-number: 64
- entry-smiles: "CN1CCc2c(c3cc(Cl)ccc3n2Cc2ccccc2)C1"
  experimental-endpoint: "MIC80"
  value-operator: "="
  recorded-number: 32
- entry-smiles: "CN1CCc2c(c3cc(Cl)ccc3n2C(=O)c2ccccc2Br)C1"
  experimental-endpoint: "MIC80"
  value-operator: ">"
  recorded-number: 64

Data provenance is ChEMBL document CHEMBL3286225.
